Listed here are compounds together with their documented TGI.
- System: HOP-92 NSCLC
- Assay details: NCI tumour cell line growth inhibition, 48 h

Study these solved cases before continuing.
• CO/C(N)=C(\C#N)N=Cc1cccnc1 = > 100 µM
• c1ccc(CSSSCc2ccccc2)cc1 = > 92.7 µM
• O=C(NC1C2CC3CC(C2)CC1C3)c1ccncn1 (stereo not given) = > 100 µM
• COc1ccc(-c2c(C#N)c(N)nc3c2COc2ccc(F)cc2-3)cc1OC = > 100 µM

Then this compound:
Query: Given the entry O=C(NC1CCC(Br)CC1)C1CCCC(S(=O)(=O)NC2CCCCC2)C1 (stereo not given) , report its measured TGI.
Response: 23 µM

----------
Listed here are compounds together with their documented TGI.
- Tested on: NCI-H522 lung
- Assay details: NCI tumour cell line growth inhibition, 48 h

• O=c1n(-c2ccccc2)c(=O)n2n1C1C=CC2CCCCCC1 = > 100 µM
• O=C1c2ccc3cc(CCl)cc(O)c3c2C(=O)c2cccc(O)c21 = > 10 µM
• CCOC(=O)/C=C(/OCC)[C@@H]1C(C(=O)c2ccc(Cl)cc2)[C@H]1/C(=C\C(=O)OCC)OCC (stereo not given in full) = > 100 µM
• CC(C1=CC=C2[C@@H]3CCC4CC(N(C)C)CC[C@]4(C)C3CC[C@]12C)N(C)C=O (stereo not given in full) = > 100 µM

Query: Given the entry "Cc1ccc(Nc2nc(C)c(C(=O)CC(=O)C(=O)Nc3c(C)cccc3C(C)(C)C)s2)cc1" , report its measured TGI.
Response: > 100 µM

----------
- Tested on: SK-MEL-5 melanoma
- Assay details: NCI tumour cell line growth inhibition, 48 h
Listed here are compounds together with their documented TGI.

Study these solved cases before continuing.
• Cc1oc2c(c1C)S(=O)(=O)C(C#N)=CN2 = > 100 µM
• CC(=NCC(=O)O)c1ccccc1 = > 100 µM
• CC1SC(c2ccc(Cl)c(Cl)c2)N(NC(=O)C(O)c2ccccc2)C1=O (configuration not stated) = > 100 µM
• C/C(CC(=O)Nc1ccc(C)c(C)c1)=N\NC(N)=S = > 100 µM
• O=c1ccn(C2OC(COC3CCCCO3)C(OC3CCCCO3)C2OC2CCCCO2)c(=O)n1-c1ccccc1 (configuration not stated) = > 100 µM

Query: Given the entry "NC(=O)n1ncc(Cl)c(Cl)c1=O" , report its measured TGI.
Response: > 100 µM

Query: Given the entry CC1=C(O)C(=O)C2C(=O)C1C(C)C2c1ccc(C)cc1 (configuration not stated) , report its measured TGI.
Response: > 100 µM

Query: Given the entry "COc1ccc(OC)c(NC(=O)c2c(Cl)c(Cl)c(Cl)c(Cl)c2-c2nc3ccccc3[nH]2)c1" , report its measured TGI.
Response: > 100 µM

Query: Given the entry "C[C@H]1CC[C@@H]2[C@@H](C)C[C@H]3[C@@H]4C(C)(C)OC(=O)[C@]4(C)C(=O)[C@@]23C1=O" , report its measured TGI.
Response: > 100 µM

Query: Given the entry "Nc1c(C(=O)Nc2ccccn2)sc2nc3c(cc12)CCCCC3" , report its measured TGI.
Response: > 50 µM

Query: Given the entry "O=C(O)COc1cc(-c2ccccc2)nc2ccc(F)cc12" , report its measured TGI.
Response: > 100 µM

Query: Given the entry "CC(C)(C)N/N=C(\C(=O)Nc1ccc([N+](=O)[O-])cc1[N+](=O)[O-])c1nc2ccc([N+](=O)[O-])cc2[nH]c1=O" , report its measured TGI.
Response: > 100 µM

----------
Listed here are compounds together with their documented TGI.
- Test system: HOP-92 NSCLC
- Assay details: NCI tumour cell line growth inhibition, 48 h

Study these solved cases before continuing.
* CCC1([N+](=O)[O-])CC2C=CC1C2 (centres undefined) | > 100 µM
* Cn1cc(C2=C(c3c4n(c5ccccc35)CCN(C(N)=S)C4)C(=O)NC2=O)c2ccccc21 | > 25 µM
* CC(C1=CC=C2[C@@H]3CCC4CC(N(C)C)CC[C@]4(C)C3CC[C@]12C)N(C)C=O (some centres undefined) | > 100 µM

Query: Given the entry O=C1[C@H]2ON(c3ccccc3)C(c3ccc(Cl)cc3Cl)[C@H]2C(=O)N1c1ccc(Cc2ccc(N3C(=O)[C@@H]4ON(c5ccccc5)C(c5ccc(Cl)cc5Cl)[C@@H]4C3=O)cc2)cc1 (some centres undefined) , report its measured TGI.
Response: > 100 µM

----------
- Test system: SN12C renal
- Assay details: NCI tumour cell line growth inhibition, 48 h
Recorded endpoint: TGI

• O=[N+]([O-])c1ccc(N=Nc2c(O)[nH]c3ccc(Br)cc23)cc1 = > 31.6 µM
• O=C(Nc1ccc(Oc2cccc(Cl)c2)c(Cl)c1)c1cnccn1 = > 50 µM
• COc1cc2oc(-c3ccc4c(c3)OCO4)c(OC)c(=O)c2c(OC)c1OC = > 100 µM
• CC1(C(=O)O)CCC(C(=O)O)C(C)(C)O1 (configuration not stated) = > 100 µM

Query: Checklist item: TGI tested on SN12C renal, entry "COC(=O)[C@]12CC[C@H]3CN(C(=O)OCc4ccccc4)[C@H]([C@H]31)[C@H](C(=O)OCC[Si](C)(C)C)N2S(=O)(=O)c1ccc(C)cc1" , value?
Response: > 100 µM

Query: Checklist item: TGI tested on SN12C renal, entry "COc1ccc2[nH]c(C(O)(Cc3cccnc3)Cc3cccnc3)cc2c1" , value?
Response: > 100 µM

Query: Checklist item: TGI tested on SN12C renal, entry "CO/C(N)=C(\C#N)N=Cc1cccnc1" , value?
Response: > 100 µM

Query: Checklist item: TGI tested on SN12C renal, entry "CC(C)(C)OC(=O)NCCCCCCC(=O)Cc1ccccc1" , value?
Response: > 100 µM

Query: Checklist item: TGI tested on SN12C renal, entry Clc1ccc(C2=NOC(C3CCCCC3)C2)cc1 (configuration not stated) , value?
Response: > 100 µM

----------
- System: HCT-15 colon
- Assay details: NCI tumour cell line growth inhibition, 48 h
Listed here are compounds together with their documented TGI.

Query: Given the entry O=C1OC(CC(=O)c2ccccc2Cl)C(Cl)=C1Cl (stereo not drawn) , report its measured TGI.
Response: > 100 µM

Query: Given the entry "COc1ccccc1-n1c(C)nc2ccccc2c1=O" , report its measured TGI.
Response: > 100 µM

Query: Given the entry "CC(=NCC(=O)O)c1ccccc1" , report its measured TGI.
Response: > 100 µM

----------
Listed here are compounds together with their documented TGI.
- Tested on: OVCAR-8 ovarian
- Assay details: NCI tumour cell line growth inhibition, 48 h

Study these solved cases before continuing.
- O=c1[nH]nc(Cc2ccccc2)n1O: > 100 µM
- Cn1cc(C2=C(c3c4n(c5ccccc35)CCN(C(N)=S)C4)C(=O)NC2=O)c2ccccc21: > 25 µM
- CC(C1=CC=C2[C@@H]3CCC4CC(N(C)C)CC[C@]4(C)C3CC[C@]12C)N(C)C=O (stereo not given in full): > 100 µM
- CC(=O)Oc1ccc2oc(=O)cc(C)c2c1: > 100 µM

Then this compound:
Query: Given the entry "Cc1ccc(Nc2nc(C)c(C(=O)CC(=O)C(=O)Nc3c(C)cccc3C(C)(C)C)s2)cc1" , report its measured TGI.
Response: > 100 µM

----------
- System: NCI-H226 lung
- Assay details: NCI tumour cell line growth inhibition, 48 h
Listed here are compounds together with their documented TGI.
Number only, in µM; omit the unit.

Study these solved cases before continuing.
• CCCCn1c(C)c(C(=O)CC)c(C(=O)NCCN2CCN(c3ccccc3Cl)CC2)c1C = 37.8
• COc1cccc2c1C(=O)c1c(O)c3c(c(O)c1C2=O)CC(O)(C(=O)CO)CC3OC1CC(N)C(I)C(C)O1 (stereo unspecified) = 2.95
• CC(C)(C)C(=O)CC1(O)C=C(O)C(O)(CC(=O)C(C)(C)C)O1 (stereo unspecified) = 56.6
• Cc1cccc(NC2=C(Cl)C(=O)N(Cc3ccc(Cl)cc3)C2=O)c1 = 8.04

Then this compound:
Query: Given the entry "Cc1nc2ccccc2c(/C=C/c2ccc(Cl)cc2)c1C(=O)/C=C/c1ccc(F)cc1" , report its measured TGI.
Response: 3.57

----------
- Test system: K-562 leukemia
- Assay details: NCI tumour cell line growth inhibition, 48 h
Recorded endpoint: TGI (µM)
Number only, in µM; omit the unit.

Study these solved cases before continuing.
• CC/C=C\C/C=C\C[C@H]1C/C=C2/C(=O)C=C[C@@H]2C/C=C\CCC(=O)O1 = 9.1
• CC(=O)OC1Oc2ccc(C)cc2-c2oc(=O)c(-c3cc4ccccc4oc3=O)cc21 (stereo unspecified) = 14.1

Then this compound:
Query: Given the entry O=C(NC1CCC(Br)CC1)C1CCCC(S(=O)(=O)NC2CCCCC2)C1 (stereo unspecified) , report its measured TGI.
Response: 250
